Answer each item with its documented pKd.
# tgt: MSI-1 RRM1-2 (Homo sapiens, UniProt O43347 1-200)
# Sequence (O43347 1-200): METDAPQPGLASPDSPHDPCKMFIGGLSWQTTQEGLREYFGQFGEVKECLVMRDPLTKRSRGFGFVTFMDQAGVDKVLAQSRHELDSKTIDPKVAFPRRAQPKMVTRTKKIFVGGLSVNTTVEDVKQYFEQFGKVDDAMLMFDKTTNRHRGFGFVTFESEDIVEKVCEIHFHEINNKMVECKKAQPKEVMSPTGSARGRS
# testName: SPR; KD1 monovalent, 1:2 model; NMR: 50 mM Tris-HCl, 140 mM NaCl, 1 mM EDTA, 1 mM protease inhibitors, pH 7.2 (RRM1: pH 7.5), 298 K; fluorescence quenching: 50 mM Tris pH 7.2, 140 mM NaCl, 1 mM EDTA; SPR: biotinylated RNA immobilised, buffer not in the material
# assayContext: protein: recombinant; label: biotin for SPR; unlabelled for NMR; single strand
The scale used: pKd is minus the common logarithm of the concentration in molar units.

Input line: I'd like to know its pKd. The binder in question is UUGAUAGUUAGCAGGU (ssRNA) [oligo-L3.2]
Output line: 6.84

Input line: I'd like to know its pKd. The binder in question is UUGUUAGUUAUUAGUU (ssRNA) [oligo-L3]
Output line: 6.61

Input line: I'd like to know its pKd. The binder in question is UUGUUAGUUACCCCUU (ssRNA) [oligo-L2]
Output line: 7.24

Values compiled from paper PMC12342889.
